- subject-of-test: TBP (human TATA binding protein) (Homo sapiens, UniProt P20226 1-339)
- Sequence (P20226 whole entry): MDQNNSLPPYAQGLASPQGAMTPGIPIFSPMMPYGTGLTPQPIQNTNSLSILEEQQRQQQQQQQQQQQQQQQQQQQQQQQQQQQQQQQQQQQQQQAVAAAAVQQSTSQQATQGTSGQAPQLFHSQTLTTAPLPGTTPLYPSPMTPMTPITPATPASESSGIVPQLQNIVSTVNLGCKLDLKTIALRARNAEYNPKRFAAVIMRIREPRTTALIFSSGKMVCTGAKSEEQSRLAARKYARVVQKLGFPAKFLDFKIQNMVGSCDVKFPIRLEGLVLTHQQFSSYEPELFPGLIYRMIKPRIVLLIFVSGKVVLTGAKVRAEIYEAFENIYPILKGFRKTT
- experimental-details: bulk FRET; 50 mM KCl, 4 mM Mg2+; 20 mM Tris pH 7.9, 4 mM MgCl2, 1 mM DTT, 5% glycerol, 5-150 mM KCl as indicated, 1 nM labeled DNA (1-5 nM in Results), 20 min; 25 C (37 C tested)
- setup-conditions: protein: recombinant; label: 5' ends labeled with donor (Atto-488) and acceptor (Atto-633 or Atto-647N); blunt
pKd: −log10 of the molar value.
quantity-name: pKd

>  <binder>
TATA-14E (dsDNA) DNA 1: GGCTATAAAAGGGG DNA 2: CCCCTTTTATAGCC

>  <value-observed>
8.30

$$$$

Data origin, for the record: paper PMC4081063
